method.notes: self-splicing fitness, log relative to wild type (ln ratio); higher = more splicing; Tetrahymena group I intron in knt gene, E. coli kanamycin selection, DiMSum; sequences stand for … in CUCUCU…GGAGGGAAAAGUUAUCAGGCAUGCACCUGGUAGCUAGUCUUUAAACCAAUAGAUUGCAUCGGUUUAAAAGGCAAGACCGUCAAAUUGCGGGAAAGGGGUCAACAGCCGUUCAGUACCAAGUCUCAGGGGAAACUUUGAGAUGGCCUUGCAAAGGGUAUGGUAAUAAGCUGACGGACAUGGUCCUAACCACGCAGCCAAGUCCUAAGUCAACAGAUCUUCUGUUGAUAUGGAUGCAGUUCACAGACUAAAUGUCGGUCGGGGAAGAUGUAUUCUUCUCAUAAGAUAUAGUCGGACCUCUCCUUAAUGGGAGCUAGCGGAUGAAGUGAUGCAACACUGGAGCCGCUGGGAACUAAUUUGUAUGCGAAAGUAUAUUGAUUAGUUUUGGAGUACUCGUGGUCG;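 also: selection with 25 µg/mL kanamycin versus none on LB agar overnight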
condition.description: 30 °C
Consider the following sequences; for each one, report its self-splicing fitness (ln).
Numbers only.

Guide cases for self-splicing fitness (ln), answers given:
- AUGCAGCAAUAUUACGAACG: -1.7
- GGCCAGCAAUAUUACGUCUC: -1.1
- CCCCAGCAAUAUUACGGCGA: -2.05
- GCACAGCAAUAUUACGUAUA: -0.999
- ACAAAGCAAUAUUACGGCGA: -0.177
- CCGGAGCAAUAUUACGCGUG: -1.09

List the reported self-splicing fitness (ln) of each sequence below.
1. GAUUAGCAAUAUUACGUGCU
2. CACAAGCAAUAUUACGUUAC
3. GGAGAGCAAUAUUACGUACU
4. UUCAAGCAAUAUUACGACGG

-2.46
-4.46
-1.1
-1.5
